The reported numbers originate from ChEMBL document CHEMBL1150737.

Let's look at some compounds and their measured EC50.
test system: L1210; assay: Cytotoxicity against mouse L1210 cells; type: functional; conditions: read-out: ED50 (the source's name)
reported property: EC50 (µg/mL)

>>> value_measured("COC(=O)[C@]12OC[C@]34[C@H]([C@@H](O)[C@@H]1O)[C@@]1(C)C(=O)C(O[C@@H]5O[C@H](CO)[C@@H](O)[C@H](O)[C@H]5O)=C[C@@H](C)[C@@H]1C[C@H]3OC(=O)[C@H](OC(=O)/C=C(\\C)C(C)(C)OC(C)=O)[C@@H]24 [Bruceantinoside C]")
3.5
>>> value_measured("COC(=O)[C@]12OC[C@]34[C@H]([C@@H](O)[C@@H]1O)[C@@]1(C)C(=O)C(O[C@@H]5O[C@H](CO)[C@@H](O)[C@H](O)[C@H]5O)=C[C@@H](C)[C@@H]1C[C@H]3OC(=O)[C@H](OC(=O)/C=C(\\C)C(C)C)[C@@H]24 [Yadanzioside N]")
4.56
>>> value_measured("COC(=O)[C@]12OC[C@]34[C@H]([C@@H](O)[C@@H]1O)[C@@]1(C)C=C(O[C@@H]5O[C@H](CO)[C@@H](O)[C@H](O)[C@H]5O)C(=O)[C@@H](C)[C@@H]1C[C@H]3OC(=O)[C@H](OC(=O)/C=C(\\C)C(C)(C)OC(C)=O)[C@@H]24 [Yadanzioside G]")
2.58
>>> value_measured("O=c1[nH]cc(F)c(=O)[nH]1")
1.94
